# Test system: Rattus norvegicus
# protocol: Neurotoxicity in rat assessed as impair in motor coordination at 100 mg/kg, ip after 30 mins by rotarod test (reference value: 116.50 +/- 1.18 sec)
# Assay type: toxicity, organism-based
# Parameters: dose 100 mg/kg, route intraperitoneal
# conditionInfo: in vivo, 0.5 h
measurementName: Time (s)
API: value field is a number in s; no unit string.

Example compounds with recorded Time:
Look up and report measured Time for this entry: "Cc1cccc2cc(CNc3ccc([N+](=O)[O-])cc3)c(Cl)nc12" 93.5

Look up and report measured Time for this entry: "Cc1cccc2cc(CNc3ccc(Cl)c(Cl)c3)c(Cl)nc12" 90.83

Look up and report measured Time for this entry: "Cc1ccc(NCc2cc3cccc(C)c3nc2Cl)cc1" 96.5

New cases:
Look up and report measured Time for this entry: "Cc1cccc2cc(CNc3cccc(Cl)c3)c(Cl)nc12" 97.83

Look up and report measured Time for this entry: "Cc1cccc2cc(CNc3ccccc3)c(Cl)nc12" 100.33

Look up and report measured Time for this entry: "Cc1cccc2cc(CNCc3ccccc3)c(Cl)nc12" 98.33

* * *

# protocol: Antifungal activity against Monascus purpureus MTCC 369 after 72 hrs
# Format: functional
Active and inactive are the calls of the source. No cut-off for these calls is given here.
measurementName: MIC

Look up and report measured MIC for this entry: "Cc1ccccc1NCc1cc2cccc(C)c2nc1Cl" inactive

Look up and report measured MIC for this entry: "COc1ccc(NCc2cc3cccc(C)c3nc2Cl)cc1" 100 µg/mL

Look up and report measured MIC for this entry: "Cc1cccc2cc(CNc3ccc([N+](=O)[O-])cc3)c(Cl)nc12" inactive

Look up and report measured MIC for this entry: "Cc1ccc(NCc2cc3cccc(C)c3nc2Cl)cc1" 100 µg/mL

Look up and report measured MIC for this entry: "Cc1cccc2cc(CNc3ccc(Cl)c(Cl)c3)c(Cl)nc12" 50 µg/mL

Next molecule, MIC to be filled in.
Look up and report measured MIC for this entry: "Cc1cccc2cc(CNc3cccc(Cl)c3)c(Cl)nc12" 50 µg/mL

* * *

# protocol: Antifungal activity against Monascus purpureus MTCC 369 after 72 hrs
# Type: functional
Activity calls are given as the source filed them. No cut-off for these calls is given here.
measurementName: MIC

Example compounds with recorded MIC:
Look up and report measured MIC for this entry: "CCCCNCc1cc2cccc(C)c2nc1Cl" inactive

Look up and report measured MIC for this entry: "Cc1cccc2cc(CNc3ccccc3)c(Cl)nc12" 100 µg/mL

Look up and report measured MIC for this entry: CNCCC(Oc1ccc(C(F)(F)F)cc1)c1ccccc1 (configuration not stated) 6.25 µg/mL

Look up and report measured MIC for this entry: "Cc1cccc2cc(CNc3ccc(Br)cc3)c(Cl)nc12" 100 µg/mL

Look up and report measured MIC for this entry: "Cc1cccc2cc(CNC3CCCCC3)c(Cl)nc12" inactive

Look up and report measured MIC for this entry: "Cc1cccc2cc(CNc3ccccc3Cl)c(Cl)nc12" 100 µg/mL

Look up and report measured MIC for this entry: "OC(Cn1cncn1)(Cn1cncn1)c1ccc(F)cc1F" 6.25 µg/mL

Look up and report measured MIC for this entry: "Cc1cccc2cc(CNc3ccc(F)c(Cl)c3)c(Cl)nc12" 25 µg/mL

Look up and report measured MIC for this entry: "Cc1cccc2cc(CNc3ccc(Cl)cc3)c(Cl)nc12" 50 µg/mL

Look up and report measured MIC for this entry: "Cc1cccc(NCc2cc3cccc(C)c3nc2Cl)c1" inactive

New cases:
Look up and report measured MIC for this entry: "Cc1cccc2cc(CNc3ccc(F)cc3)c(Cl)nc12" 50 µg/mL

Look up and report measured MIC for this entry: "Cc1cccc2cc(CNCc3ccccc3)c(Cl)nc12" 100 µg/mL

* * *

# Test system: Rattus norvegicus
# protocol: Antidepressant activity in Albino rat assessed as immobility time at 100 mg/kg, ip by forced swimming test (reference value: 112.4 +/- 2.88 sec)
# Format: functional
# conditionInfo: route intraperitoneal
Overview of recorded Time for various compounds
API: value field is a number in s; no unit string.

Look up and report measured Time for this entry: "Cc1cccc2cc(CNC3CCCCC3)c(Cl)nc12" 76.6

Look up and report measured Time for this entry: "Cc1cccc2cc(CNCc3ccccc3)c(Cl)nc12" 78.4

Look up and report measured Time for this entry: "Cc1cccc2cc(CNc3cccc(Cl)c3)c(Cl)nc12" 76.2

New cases:
Look up and report measured Time for this entry: "Cc1cccc2cc(CNc3ccc(F)cc3)c(Cl)nc12" 80.4

Look up and report measured Time for this entry: "Cc1cccc2cc(CNc3ccccc3)c(Cl)nc12" 103.2

* * *

# Test system: Penicillium citrinum
# protocol: Antifungal activity against Penicillium citrinum NCIM 768 after 72 hrs
# Assay type: functional
# conditionInfo: Penicillium citrinum, NCIM 768, 72 h
measurementName: MIC (µg/mL)
API: value field is a number in µg/mL; no unit string.

Example compounds with recorded MIC:
Look up and report measured MIC for this entry: "Cc1cccc2cc(CNc3ccc(F)c(Cl)c3)c(Cl)nc12" 25

Look up and report measured MIC for this entry: "Cc1cccc2cc(CNc3ccc(Cl)cc3)c(Cl)nc12" 50

New cases:
Look up and report measured MIC for this entry: "Cc1cccc2cc(CNc3ccccc3Cl)c(Cl)nc12" 100

Look up and report measured MIC for this entry: "Cc1cccc2cc(CNc3cccc(Cl)c3)c(Cl)nc12" 25

Look up and report measured MIC for this entry: CNCCC(Oc1ccc(C(F)(F)F)cc1)c1ccccc1 (stereo not drawn) [FLUOXETINE] 6.25

* * *

# Test system: Rattus norvegicus
# protocol: Neurotoxicity in rat assessed as impair in motor coordination at 100 mg/kg, ip after 30 mins by rotarod test (reference value: 116.50 +/- 1.18 sec)
# Assay type: toxicity, organism-based
# Parameters: dose 100 mg/kg, route intraperitoneal
# conditionInfo: in vivo, 0.5 h
Overview of recorded Time for various compounds
API: value field is a number in s; no unit string.

Example compounds with recorded Time:
Look up and report measured Time for this entry: "Cc1cccc2cc(CNc3ccc(F)cc3)c(Cl)nc12" 91.33

Look up and report measured Time for this entry: "Cc1cccc2cc(CNC3CCCCC3)c(Cl)nc12" 97.17

Look up and report measured Time for this entry: "Cc1cccc2cc(CNc3ccc(Cl)cc3)c(Cl)nc12" 95.17

Look up and report measured Time for this entry: "Cc1cccc2cc(CNc3ccc(F)c(Cl)c3)c(Cl)nc12" 93.67

Next compound, Time to be filled in.
Look up and report measured Time for this entry: "CCCCNCc1cc2cccc(C)c2nc1Cl" 92.34

* * *

Overview of recorded MIC for various compounds
# System: Penicillium citrinum
# protocol: Antifungal activity against Penicillium citrinum NCIM 768 after 72 hrs
# Format: functional
# conditionInfo: Penicillium citrinum, NCIM 768, 72 h

Look up and report measured MIC for this entry: "COc1ccc(NCc2cc3cccc(C)c3nc2Cl)cc1" 100 µg/mL

Look up and report measured MIC for this entry: "Cc1cccc2cc(CNCc3ccccc3)c(Cl)nc12" 100 µg/mL

Next compound, MIC to be filled in.
Look up and report measured MIC for this entry: "Cc1cccc2cc(CNc3ccc(F)cc3)c(Cl)nc12" 50 µg/mL
